test: AUC(0 to t) in dog at 1 mg/kg, iv; format: ADME, organism-based, Canis lupus familiaris; parameters: dose 1 mg/kg; conditions: in vivo
EXPERIMENTAL ENDPOINT: AUC(0-t) (ng·h/mL)
Kindly provide the numeric value in ng·h/mL only, without the unit symbol.

Challenge: Entry CCCC(N)C(=O)NCCc1ccc(-c2ccc(Cl)c(Cl)c2)cc1.Cl (racemic) has what AUC(0-t)?
Response given: 2680

----------
experiment: Cmax in cynomolgus monkey at 10 mg/kg, iv; format: ADME, organism-based, Macaca fascicularis; parameters: route intravenous, dose 10 mg/kg; details: in vivo
EXPERIMENTAL ENDPOINT: Cmax (ng/mL)
Reply numerically in ng/mL, unit not repeated.

Challenge: Consider the compound CCCC(N)C(=O)NCCc1ccc(-c2ccc(Cl)c(Cl)c2)cc1.Cl (racemic) and give its measured Cmax.
Response given: 1080

----------
test: Cmax in dog at 1 mg/kg, iv; type: ADME, organism-based, Canis lupus familiaris; design: route intravenous, dose 1 mg/kg; settings: in vivo
EXPERIMENTAL ENDPOINT: Cmax (ng/mL)
The reply should contain only the number, in ng/mL.

Challenge: Field request: Cmax | item: CCCC(N)C(=O)NCCc1ccc(-c2ccc(Cl)c(Cl)c2)cc1.Cl (racemic)
Response given: 296

----------
test: Cmax in dog at 10 mg/kg, po; format: ADME, organism-based, Canis lupus familiaris; set-up: route oral, dose 10 mg/kg; conditions: in vivo
EXPERIMENTAL ENDPOINT: Cmax
Value and unit, in that order.

Challenge: // Cmax lookup, key: CCCC(N)C(=O)NCCc1ccc(-c2ccc(Cl)c(Cl)c2)cc1.Cl (racemic)
Response given: 4390 ng/mL

----------
system: Cryptococcus neoformans; assay: Antifungal activity against Cryptococcus neoformans H99 assessed as reduction in fungal growth incubated for 72 hrs by CLSI based broth microdilution method; type: functional
EXPERIMENTAL ENDPOINT: MIC (µg/mL)
Kindly provide the numeric value in µg/mL only, without the unit symbol.

Challenge: What value of MIC has been reported for the following compound? CC(NCCc1ccc(-c2ccc(Cl)c(Cl)c2)cc1)C(N)=O.CS(=O)(=O)O (racemic)
Response given: 8

Challenge: Next compound: CCCC(N)C(=O)NCCc1ccc(-c2ccc(Cl)c(Cl)c2)cc1.Cl (racemic)
Response given: 1

Challenge: Please do the same for CC(C)(NCCc1ccc(OCc2ccc(C(F)(F)F)cc2)cc1)C(N)=O.CS(=O)(=O)O as well.
Response given: 64

Challenge: What would you report for CC(NCCc1ccc(Oc2ccc(C(F)(F)F)cc2)cc1)C(N)=O.CS(=O)(=O)O (racemic) ?
Response given: 32

Challenge: Ok, now CCCC(N)C(=O)NCCc1ccc(Oc2ccc(Cl)c(Cl)c2)cc1.Cl (racemic)
Response given: 8

Challenge: Also, CCC(N)C(=O)NCCc1ccc(-c2ccc(F)c(F)c2)cc1.Cl (racemic) please.
Response given: 64

Challenge: Please answer likewise for CC(NCCc1ccc(OCc2ccccc2Cl)cc1)C(N)=O.CS(=O)(=O)O (racemic)
Response given: 32

----------
assay: Stability in rabbit hepatocytes assessed as parent compound remaining incubated for 60 mins; format: ADME, cell-based, Oryctolagus cuniculus, Hepatocyte; settings: read-out: Stability
EXPERIMENTAL ENDPOINT: remaining at 1 h (%)
# number only, unit % dropped from output

Challenge: Give the measured remaining at 1 h of CCCC(N)C(=O)NCCc1ccc(-c2ccc(Cl)c(Cl)c2)cc1.Cl (racemic) .
Response given: 64.6

----------
test: AUC(0 to t) in dog at 10 mg/kg, po; format: ADME, organism-based, Canis lupus familiaris; design: dose 10 mg/kg; details: in vivo
EXPERIMENTAL ENDPOINT: AUC(0-t) (ng·h/mL)
The reply should be a number in ng·h/mL, with the unit left off.

Challenge: Quick one: AUC(0-t) for CCCC(N)C(=O)NCCc1ccc(-c2ccc(Cl)c(Cl)c2)cc1.Cl (racemic) ?
Response given: 30500

----------
assay: Oral bioavailability in Sprague-Dawley rat at 10 mg/kg; format: ADME, organism-based; conditions: in vivo
EXPERIMENTAL ENDPOINT: bioavailability (%)
Supply the numeric figure in %, leaving out any unit text.

Challenge: Need bioavailability, item CCCC(N)C(=O)NCCc1ccc(-c2ccc(Cl)c(Cl)c2)cc1.Cl (racemic)
Response given: 39.8

----------
assay: AUC(0 to t) in cynomolgus monkey at 10 mg/kg, iv; type: ADME, organism-based, Macaca fascicularis; set-up: dose 10 mg/kg; settings: in vivo
EXPERIMENTAL ENDPOINT: AUC(0-t) (ng·h/mL)
Provide the reading as a plain figure in ng·h/mL.

Challenge: Would you kindly share the measured AUC(0-t) for CCCC(N)C(=O)NCCc1ccc(-c2ccc(Cl)c(Cl)c2)cc1.Cl (racemic) ?
Response given: 7150

----------
test system: Cryptococcus neoformans; assay: Antifungal activity against Cryptococcus neoformans H99 assessed as reduction in fungal growth incubated for 72 hrs by CLSI based broth microdilution method; assay type: functional
EXPERIMENTAL ENDPOINT: MIC (µg/mL)
Your answer is read as µg/mL, so omit the unit and give the number.

Example entries begin here.
CCCCC(N)C(=O)NCCc1ccc(-c2ccc(C(F)(F)F)cc2)cc1.Cl (racemic) | 4
CC(NCCc1ccc(OCc2ccc(C(F)(F)F)cc2)cc1)C(N)=O.CS(=O)(=O)O (racemic) | 32

Challenge: Item Cl.O=C(NCCc1ccc(-c2ccc(C(F)(F)F)cc2)cc1)C1CCCN1 (racemic) with Cryptococcus neoformans - MIC?
Response given: 16

Challenge: Next entry: CC(NCCc1ccc(OCc2ccccc2C(F)(F)F)cc1)C(N)=O.CS(=O)(=O)O (racemic)
Response given: 64

Challenge: Field entry: CCCCC(N)C(=O)NCCc1ccc(-c2ccc(OC(F)(F)F)cc2)cc1.Cl (racemic)
Response given: 4

----------
assay: Stability in mouse liver microsomes assessed as parent compound remaining after 30 mins; format: ADME, Microsome; conditions: liver microsomes, read-out: Stability
EXPERIMENTAL ENDPOINT: remaining at 0.5 h (%)
Reply numerically in %, unit not repeated.

Challenge: Reported remaining at 0.5 h, molecule CCCC(N)C(=O)NCCc1ccc(-c2ccc(Cl)c(Cl)c2)cc1.Cl (racemic) : ____
Response given: 78.2

----------
biological target: UniProtKB P08684; experiment: Inhibition of CYP3A4 (unknown origin) at 10 uM relative to control; type: ADME
Sequence (P08684 whole entry): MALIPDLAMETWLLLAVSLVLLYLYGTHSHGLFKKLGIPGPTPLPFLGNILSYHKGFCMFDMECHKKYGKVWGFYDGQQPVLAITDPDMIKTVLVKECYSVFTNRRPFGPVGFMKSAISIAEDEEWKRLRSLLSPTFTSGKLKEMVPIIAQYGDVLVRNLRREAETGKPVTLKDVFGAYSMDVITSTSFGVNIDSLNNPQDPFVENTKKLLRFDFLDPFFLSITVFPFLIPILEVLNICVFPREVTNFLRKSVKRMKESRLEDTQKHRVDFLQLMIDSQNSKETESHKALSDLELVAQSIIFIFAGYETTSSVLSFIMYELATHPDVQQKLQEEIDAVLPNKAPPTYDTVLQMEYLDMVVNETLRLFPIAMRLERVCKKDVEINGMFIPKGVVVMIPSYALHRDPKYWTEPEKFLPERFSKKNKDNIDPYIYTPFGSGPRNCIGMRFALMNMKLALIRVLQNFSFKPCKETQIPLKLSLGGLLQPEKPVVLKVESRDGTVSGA
EXPERIMENTAL ENDPOINT: inhibition at 10 µM

Challenge: Which value of inhibition at 10 µM has been reported for CCCCC(N)C(=O)NCCc1ccc(-c2ccc(Cl)c(Cl)c2)cc1.Cl (racemic) in the records?
Response given: > 70%

----------
molecular target: CYP1A2 (Homo sapiens); assay: Inhibition of CYP1A2 (unknown origin) relative to control; assay type: ADME
Sequence (P05177 whole entry): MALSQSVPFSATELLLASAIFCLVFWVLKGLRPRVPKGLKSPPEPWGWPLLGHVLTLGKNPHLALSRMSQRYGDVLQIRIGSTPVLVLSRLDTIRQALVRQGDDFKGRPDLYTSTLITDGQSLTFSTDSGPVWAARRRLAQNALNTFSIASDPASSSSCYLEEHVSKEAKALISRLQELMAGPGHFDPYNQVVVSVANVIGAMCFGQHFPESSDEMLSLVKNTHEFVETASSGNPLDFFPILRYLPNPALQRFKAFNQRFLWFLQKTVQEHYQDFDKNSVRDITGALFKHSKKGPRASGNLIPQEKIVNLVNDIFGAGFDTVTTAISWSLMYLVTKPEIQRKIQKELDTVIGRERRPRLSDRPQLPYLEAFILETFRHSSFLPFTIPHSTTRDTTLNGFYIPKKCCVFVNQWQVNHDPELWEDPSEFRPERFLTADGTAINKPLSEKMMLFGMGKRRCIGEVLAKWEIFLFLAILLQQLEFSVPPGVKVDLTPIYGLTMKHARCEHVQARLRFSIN
EXPERIMENTAL ENDPOINT: inhibition at 10 µM (%)
Field format: number, assumed %, no unit text.

Challenge: I am curious: what inhibition at 10 µM value has been reported for CCCC(N)C(=O)NCCc1ccc(-c2ccc(Cl)c(Cl)c2)cc1.Cl (racemic) ?
Response given: 81.1

----------
assay: Stability in human hepatocytes assessed as parent compound remaining incubated for 60 mins; assay type: ADME, cell-based, Hepatocyte; settings: read-out: Stability
EXPERIMENTAL ENDPOINT: remaining at 1 h (%)
Number in %, nothing else.

Challenge: What measured remaining at 1 h goes with CCCC(N)C(=O)NCCc1ccc(-c2ccc(Cl)c(Cl)c2)cc1.Cl (racemic) ?
Response given: 79.1

----------
experiment: AUC(0 to t) in Sprague-Dawley rat at 2 mg/kg, iv; format: ADME, organism-based; parameters: dose 2 mg/kg; conditions: in vivo
EXPERIMENTAL ENDPOINT: AUC(0-t) (ng·h/mL)
Dear colleague, please return just the value in ng·h/mL, with no unit written.

Challenge: Request the reported AUC(0-t) associated with CCCC(N)C(=O)NCCc1ccc(-c2ccc(Cl)c(Cl)c2)cc1.Cl (racemic)
Response given: 265

----------
# reported MIC; entries follow
system: Cryptococcus neoformans; assay: Antifungal activity against Cryptococcus neoformans H99 assessed as reduction in fungal growth incubated for 72 hrs by CLSI based broth microdilution method; assay type: functional
A number alone suffices; assume µg/mL.

Challenge: Quick one: MIC of CN1CCCCC1C(=O)NCCc1ccc(-c2ccc(Cl)c(Cl)c2)cc1 (racemic) ?
Response given: 8

Challenge: Query Cl.O=C(NCCc1ccc(-c2ccc(Cl)c(Cl)c2)cc1)C1CCCN1 (configuration not stated) next
Response given: 8

Challenge: Request: CCC(NC)C(=O)NCCc1ccc(-c2ccc(C(F)(F)F)cc2)cc1.Cl (racemic)
Response given: 16

Challenge: # iterate: CC(NCCc1ccc(OCc2ccc(Cl)cc2Cl)cc1)C(N)=O.CS(=O)(=O)O (racemic)
Response given: 8

Challenge: Another: C[C@@H]1[C@H](O)[C@@H](C)/C=C/C=C/C=C/C=C/C=C/C=C/C=C/[C@H](O[C@@H]2O[C@H](C)[C@@H](O)[C@H](N)[C@@H]2O)C[C@@H]2O[C@](O)(C[C@@H](O)C[C@@H](O)[C@H](O)CC[C@@H](O)C[C@@H](O)CC(=O)O[C@H]1C)C[C@H](O)[C@H]2C(=O)O
Response given: 0.25

Challenge: Could you do the same for CCCC(NC)C(=O)NCCc1ccc(-c2ccc(C(F)(F)F)cc2)cc1.Cl (racemic) , please?
Response given: 16

Challenge: // next record CC(NCCc1ccc(-c2ccc(OC(F)(F)F)cc2)cc1)C(N)=O.CS(=O)(=O)O (racemic)
Response given: 16

Challenge: Consider next the molecule CC(NCCc1ccc(OCc2ccc(Cl)cc2)cc1)C(N)=O.CS(=O)(=O)O (racemic) in the same way.
Response given: 64

Challenge: Another molecule: CCCC(NC)C(=O)NCCc1ccc(-c2ccc(OC(F)(F)F)cc2)cc1.Cl (racemic)
Response given: 8

Challenge: And for COc1cccc(COc2ccc(CCNC(C)C(N)=O)cc2)c1.CS(=O)(=O)O (racemic) ?
Response given: 128

Challenge: Repeat for the following molecule: CC(NCCc1ccc(OCc2ccc(Cl)c(Cl)c2)cc1)C(N)=O.CS(=O)(=O)O (racemic)
Response given: 8
